// data source = paper PMC3498832

# test-system: PBCV-1 ThyX (Paramecium bursaria Chlorella virus 1)
# Sequence (O41156 whole entry): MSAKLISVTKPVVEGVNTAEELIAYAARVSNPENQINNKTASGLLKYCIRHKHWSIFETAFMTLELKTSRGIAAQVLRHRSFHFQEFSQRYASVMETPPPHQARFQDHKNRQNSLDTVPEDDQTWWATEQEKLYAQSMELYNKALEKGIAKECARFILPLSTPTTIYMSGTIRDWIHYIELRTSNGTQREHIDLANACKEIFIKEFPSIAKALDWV
# assay-notes: C8-C1 induced quenching of FAD fluorescence
# condition-parameters: authors' unpublished data
quantity-measured: Kd

> print(dat)
                            entry.smiles                               test.system  quantity.measured  data.value
1  COc1ccc(CC2=C(O)C(=O)c3ccccc3C2=O)cc1  PBCV-1 ThyX (Paramecium bursaria Chlorella virus 1)                 Kd     ~400 nM

----------
# test-system: PBCV-1 ThyX (Paramecium bursaria Chlorella virus 1)
# Construct: made in house; host or cells: E. coli BL21
# assay-notes: 'deprotonation' activity (tritium release assay from [5-3H]dUMP)
# Type: biochemical, Paramecium bursaria chlorella virus (PBCV-1)
# condition-parameters: compound 20 µM
Recorded measurements of inhibition at 20 µM, one per entry
quantity-measured: inhibition at 20 µM (%)

> print(dat)
                               entry.smiles                               test.system  unit.symbol  data.value
1    O=C(CC1=C(O)C(=O)c2ccccc2C1=O)c1ccccc1  PBCV-1 ThyX (Paramecium bursaria Chlorella virus 1)            %          36
2     O=C(CC1=C(O)C(=O)c2ccccc2C1=O)c1cccs1  PBCV-1 ThyX (Paramecium bursaria Chlorella virus 1)            %          38
3  COc1ccc(C(=O)CC2=C(O)C(=O)c3ccccc3C2=O)cc1  PBCV-1 ThyX (Paramecium bursaria Chlorella virus 1)            %          22
4   O=C(O)c1ccccc1NC1=CC(=O)c2c(O)cccc2C1=O  PBCV-1 ThyX (Paramecium bursaria Chlorella virus 1)            %          12
5  Cc1ccc(C(=O)CC2=C(O)C(=O)c3ccccc3C2=O)cc1  PBCV-1 ThyX (Paramecium bursaria Chlorella virus 1)            %          38
6     COc1ccc(CC2=C(O)C(=O)c3ccccc3C2=O)cc1  PBCV-1 ThyX (Paramecium bursaria Chlorella virus 1)            %          78

----------
# test-system: PBCV-1 ThyX (Paramecium bursaria Chlorella virus 1)
# Construct: made in house; host or cells: E. coli BL21
# assay-notes: NADPH oxidation assay of ThyX activity (decrease of A340)
# Format: biochemical, Paramecium bursaria chlorella virus (PBCV-1)
# condition-parameters: apparent Ki (Morrison equation), with respect to dUMP, uncorrected
quantity-measured: Ki (nM)

> print(dat)
                                   compound  data.value
1  COc1ccc(CC2=C(O)C(=O)c3ccccc3C2=O)cc1 [C8-C1]        1500

----------
# test-system: PBCV-1 ThyX (Paramecium bursaria Chlorella virus 1)
# Construct: made in house; host or cells: E. coli BL21
# assay-notes: NADPH oxidation assay of ThyX activity (decrease of A340)
# Format: biochemical, Paramecium bursaria chlorella virus (PBCV-1)
# condition-parameters: 10 µM total PBCV-1 ThyX, 5 µM dUMP, 200 µM NADPH; read-out: IC50 (µM) NADPH oxidation
Recorded measurements of IC50, one per entry
quantity-measured: IC50 (µM)

> print(dat)
                               entry.smiles  comparator  data.value
1   O=C(O)c1ccccc1NC1=CC(=O)c2c(O)cccc2C1=O           >          10
2    O=C(CC1=C(O)C(=O)c2ccccc2C1=O)c1ccccc1           =          11
3  Cc1ccc(C(=O)CC2=C(O)C(=O)c3ccccc3C2=O)cc1           =           7
4     O=C(CC1=C(O)C(=O)c2ccccc2C1=O)c1cccs1           =           7
5  COc1ccc(C(=O)CC2=C(O)C(=O)c3ccccc3C2=O)cc1           =          10
